# tested system: Glycogen synthase kinase-3 beta (Homo sapiens)
# Sequence (P49841 whole entry): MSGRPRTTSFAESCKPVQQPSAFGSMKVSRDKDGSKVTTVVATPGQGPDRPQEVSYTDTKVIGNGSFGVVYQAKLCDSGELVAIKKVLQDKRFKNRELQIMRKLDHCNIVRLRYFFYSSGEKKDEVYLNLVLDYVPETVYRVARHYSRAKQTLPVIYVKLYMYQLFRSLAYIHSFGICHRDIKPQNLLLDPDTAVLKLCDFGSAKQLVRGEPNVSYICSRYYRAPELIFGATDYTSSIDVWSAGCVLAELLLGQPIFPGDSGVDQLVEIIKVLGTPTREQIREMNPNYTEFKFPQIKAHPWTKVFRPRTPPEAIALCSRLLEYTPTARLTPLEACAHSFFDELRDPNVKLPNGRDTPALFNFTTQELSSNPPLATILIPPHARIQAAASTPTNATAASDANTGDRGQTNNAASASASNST
measure name: Ki (nM)
Report as a plain number; the unit nM is understood.

Entry O=C(O)[C@H]1C2CCC(CC2)[C@@H]1Nc1nc(-c2c[nH]c3ncc(F)cc23)ncc1F [PIMODIVIR] under Glycogen synthase kinase-3 beta (Homo sapiens) had Ki of 1600

====

# tested system: Polymerase basic protein 2 (Influenza A virus (strain A/Puerto Rico/8/1934 H1N1), UniProt P03428)
# Sequence (P03428 whole entry): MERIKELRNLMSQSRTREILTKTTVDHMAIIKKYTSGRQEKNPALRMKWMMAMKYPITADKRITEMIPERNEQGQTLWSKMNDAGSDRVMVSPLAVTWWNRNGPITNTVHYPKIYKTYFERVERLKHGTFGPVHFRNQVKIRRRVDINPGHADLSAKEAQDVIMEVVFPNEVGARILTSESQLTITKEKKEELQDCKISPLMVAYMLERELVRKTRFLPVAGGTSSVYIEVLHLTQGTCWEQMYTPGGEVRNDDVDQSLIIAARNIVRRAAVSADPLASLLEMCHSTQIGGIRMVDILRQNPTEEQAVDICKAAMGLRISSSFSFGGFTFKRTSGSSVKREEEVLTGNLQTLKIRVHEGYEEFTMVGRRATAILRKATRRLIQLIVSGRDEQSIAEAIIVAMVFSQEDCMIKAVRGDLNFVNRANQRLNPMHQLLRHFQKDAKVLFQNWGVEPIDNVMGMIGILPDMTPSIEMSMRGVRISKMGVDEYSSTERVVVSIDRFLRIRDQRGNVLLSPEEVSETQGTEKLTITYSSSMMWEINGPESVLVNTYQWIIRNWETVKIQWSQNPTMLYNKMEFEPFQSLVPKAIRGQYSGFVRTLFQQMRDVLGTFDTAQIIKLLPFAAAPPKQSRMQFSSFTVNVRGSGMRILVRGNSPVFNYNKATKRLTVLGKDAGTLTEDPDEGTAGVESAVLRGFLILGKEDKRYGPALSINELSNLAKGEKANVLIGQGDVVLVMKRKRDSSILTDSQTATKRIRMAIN
# test name: Binding affinity to influenza A virus (A/Puerto Rico/8/1934(H1N1)) PB2 by competition binding fluorescence polarization (FP) assay
pKd: −log10 of the molar value.
Reported pKd by item:

Some compounds with recorded pKd:
O=C(O)[C@H]1[C@@H]2CC[C@@H](C2)[C@@H]1Nc1nc(-c2c[nH]c3ncc(Cl)cc23)ncc1F (racemic) ... > 8.70
O=C(O)[C@H]1C2CCC(CC2)[C@@H]1Nc1nc(-c2c[nH]c3ncc(Cl)cc23)ncc1F ... > 8.30
C[C@]1(C(=O)O)CCCC[C@@H]1Nc1nc(-c2c[nH]c3ncc(F)cc23)ncc1F ... > 8.70

Noted for O=C(O)[C@H]1[C@H]2CC[C@H](C2)[C@@H]1Nc1nc(-c2c[nH]c3ncc(Cl)cc23)ncc1F (racemic) : its pKd reads > 8.70

====

# test name: Half life in rat at 3 mg/kg, iv
# Assay type: ADME, organism-based
# Parameters: dose 3 mg/kg, route intravenous
# cond: in vivo
measure name: half-life (min)
I only need the number, in min, no unit after it.

OC[C@H](O)CN1CCC[C@H](Nc2nc(-c3c[nH]c4ncc(Cl)cc34)ncc2F)C1 ... 138
O=C(O)[C@H]1C2CCC(CC2)[C@@H]1Nc1nc(-c2c[nH]c3ncc(Cl)cc23)ncc1F ... 234

Form: compound = `CS(=O)(=O)N1CCCC[C@@H]1CNc1nc(-c2c[nH]c3ncc(Cl)cc23)ncc1F` ; half-life = 24
